- System: Ribosomal protein S6 kinase alpha-4 (Homo sapiens) (UniProt O75676);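 note: values are mean inhibition of MSK2, from GSK PKIS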
- Sequence (O75676 whole entry, looked up): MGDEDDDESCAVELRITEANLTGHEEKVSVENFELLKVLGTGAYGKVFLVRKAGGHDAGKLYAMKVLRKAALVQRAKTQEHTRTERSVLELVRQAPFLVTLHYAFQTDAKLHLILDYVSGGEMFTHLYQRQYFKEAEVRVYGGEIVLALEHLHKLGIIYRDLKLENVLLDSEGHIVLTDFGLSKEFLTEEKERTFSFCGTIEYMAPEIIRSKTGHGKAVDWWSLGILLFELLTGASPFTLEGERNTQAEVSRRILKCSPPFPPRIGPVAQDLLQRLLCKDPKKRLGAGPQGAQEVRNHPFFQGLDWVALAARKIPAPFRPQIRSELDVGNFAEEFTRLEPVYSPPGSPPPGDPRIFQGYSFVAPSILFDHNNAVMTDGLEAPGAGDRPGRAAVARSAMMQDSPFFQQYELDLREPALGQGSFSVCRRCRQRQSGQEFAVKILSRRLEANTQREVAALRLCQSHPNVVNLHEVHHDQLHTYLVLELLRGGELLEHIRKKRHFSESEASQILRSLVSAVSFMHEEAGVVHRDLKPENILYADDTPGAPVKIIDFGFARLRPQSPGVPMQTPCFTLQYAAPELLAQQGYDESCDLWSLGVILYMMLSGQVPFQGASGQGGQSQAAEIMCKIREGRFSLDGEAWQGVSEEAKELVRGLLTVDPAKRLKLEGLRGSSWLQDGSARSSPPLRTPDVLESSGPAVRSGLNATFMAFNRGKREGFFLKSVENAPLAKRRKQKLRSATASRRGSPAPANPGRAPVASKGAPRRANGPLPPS
- Test context: at 0.1 µM
Recorded inhibition values for a group of molecules are listed next.
Form entry: value (%) — number only.

Known inhibition results, listed for orientation:
| Molecule | U | Result number |
| --- | --- | --- |
| Cc1ccc(Nc2ccnc(Nc3cccc(C(N)=O)c3)n2)cc1O | % | 2.41 |
| NS(=O)(=O)c1ccc(NC=C2C(=O)Nc3ccc4ncsc4c32)cc1 | % | 28.8 |
| CS(=O)(=O)Nc1cccc(-c2ccc3c(NC(=O)C4CC4)n[nH]c3c2)c1 | % | 0.62 |
| NS(=O)(=O)c1ccc(Nc2cc(-c3cccc(O)c3)n[nH]2)cc1 | % | 2.94 |

Prompt: Dear colleague, I am looking for the recorded inhibition of the following molecule: COc1cc2ncn(-c3cc(OCc4ccccc4S(C)(=O)=O)c(C#N)s3)c2cc1OC
Response: 3.93

Prompt: Dear colleague, I am looking for the recorded inhibition of the following molecule: Nc1nccc(-c2c(-c3ccc(F)cc3)nn3cc(C(F)(F)F)ccc23)n1
Response: 1.24

Prompt: Dear colleague, I am looking for the recorded inhibition of the following molecule: CC(C)c1ccc2c(c1)NC(=O)/C2=N/Nc1ccc(S(N)(=O)=O)cc1
Response: 0.04

Prompt: Dear colleague, I am looking for the recorded inhibition of the following molecule: CCn1c(-c2nonc2N)nc2ccc(F)cc21
Response: 3.5

Prompt: Dear colleague, I am looking for the recorded inhibition of the following molecule: COc1cc2ncnc(Nc3ccc4c(cnn4Cc4ccccc4)c3)c2cc1OC
Response: 1.21

Prompt: Dear colleague, I am looking for the recorded inhibition of the following molecule: Cc1ccc2c(-c3ccnc(Nc4cccc(C(F)(F)F)c4)n3)c(-c3ccccc3)nn2n1
Response: 2.52

Prompt: Dear colleague, I am looking for the recorded inhibition of the following molecule: N#Cc1c(NC(=O)c2ccccc2F)sc2c1CCCC2
Response: -1.11

Prompt: Dear colleague, I am looking for the recorded inhibition of the following molecule: NS(=O)(=O)c1cccc(-c2cc3ccncc3cc2OCc2ccccc2)c1
Response: 2.88

Prompt: Dear colleague, I am looking for the recorded inhibition of the following molecule: C[C@@H](Oc1cc(-n2cnc3ccc(OCC4CCN(C)CC4)cc32)sc1C(N)=O)c1ccccc1C(F)(F)F
Response: 0

Prompt: Dear colleague, I am looking for the recorded inhibition of the following molecule: Nc1nccc(-c2c(-c3ccc(F)cc3)ncn2CCCN2CCOCC2)n1
Response: 4.22

Prompt: Dear colleague, I am looking for the recorded inhibition of the following molecule: CN1CCN(C(=O)c2ccc(NC(=O)Nc3ccc(N(C)c4ccnc(Nc5ccc(CS(C)(=O)=O)cc5)n4)cc3)cc2)CC1
Response: 2.61

Prompt: Dear colleague, I am looking for the recorded inhibition of the following molecule: NS(=O)(=O)c1cccc(Nc2cc(-c3ccc(F)cc3)n[nH]2)c1
Response: 3.37

Prompt: Dear colleague, I am looking for the recorded inhibition of the following molecule: Cc1ccc(NC(=O)CC2CC2)cc1-c1ccc(C(=O)NCC2CC2)cc1
Response: 2.17

Prompt: Dear colleague, I am looking for the recorded inhibition of the following molecule: FC(F)(F)c1ccc(-c2nn3ncccc3c2-c2ccnc(Nc3ccc4c(c3)OCCO4)n2)cc1
Response: 5.05

Prompt: Dear colleague, I am looking for the recorded inhibition of the following molecule: NS(=O)(=O)c1ccc(-c2cc3ccncc3cc2OCc2ccccc2)cc1
Response: 1.86

Prompt: Dear colleague, I am looking for the recorded inhibition of the following molecule: CN(C)C(=O)O[C@@H]1CN[C@@H](C#Cc2cc3ncnc(Nc4ccc(OCc5cccc(F)c5)c(Cl)c4)c3s2)C1
Response: -1.34

Prompt: Dear colleague, I am looking for the recorded inhibition of the following molecule: CN(C)CCCn1c(-c2nonc2N)nc2cnccc21
Response: 3.18

Prompt: Dear colleague, I am looking for the recorded inhibition of the following molecule: Oc1cccc(-c2nc(-c3ccccc3)[nH]c2-c2ccncc2)c1
Response: 1.9

Prompt: Dear colleague, I am looking for the recorded inhibition of the following molecule: Cc1nc(-c2ccccc2)n2nc(NCCCN3CCOCC3)ncc12
Response: 2.47

Prompt: Dear colleague, I am looking for the recorded inhibition of the following molecule: [O-][S+]1CCN(Cc2ccc(-c3ccc4ncnc(Nc5ccc(OCc6ccccc6)c(Cl)c5)c4c3)o2)CC1
Response: -0.52
